molecular target: Caspase-3 (Homo sapiens, UniProt P42574); format: functional;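 further: Dose-response selectivity test against caspase-3 for candidate inhibitors of sentrin-specific proteases (SENPs)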
Sequence (P42574 29-175 limits assumed): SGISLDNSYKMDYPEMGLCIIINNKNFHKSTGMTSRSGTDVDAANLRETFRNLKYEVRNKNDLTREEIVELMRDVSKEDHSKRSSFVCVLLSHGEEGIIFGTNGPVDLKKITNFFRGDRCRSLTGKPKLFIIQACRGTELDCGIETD
Sequence (P42574 176-277 limits assumed): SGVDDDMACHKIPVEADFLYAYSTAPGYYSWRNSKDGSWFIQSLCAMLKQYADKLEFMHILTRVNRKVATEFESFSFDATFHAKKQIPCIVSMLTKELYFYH
Activity calls are given as the source filed them.
Each entry below lists one item and its recorded IC50 value.

| molecule | IC50 |
| --- | --- |
| O=C(NNc1cc(N2CCOCC2)nc(N2CCOCC2)n1)c1ccc([N+](=O)[O-])cc1 | 32.4 µM (active) |
| CCCOc1ccc(-c2nnc(-c3ccco3)o2)cc1 | 17.4 µM (active) |
| Nc1c(N2CCCC2)cc(Cl)c2nonc12 | 9.05 µM (active) |
| O=C1OC(Nc2cc(Br)cc3cccnc23)c2ccccc21 (configuration not stated) | 2.67 µM (active) |
| Oc1ccc(/N=C/c2ccc(OCc3ccccc3)cc2)cc1 | 14.3 µM (active) |
| CCOC(=O)c1sc(NC(=O)c2ccc3nc[nH]c3c2)nc1C | 7.1 µM (active) |
| O=C(c1ccc(F)cc1)n1c(=S)nc2ccccn21 | 52.2 µM (active) |

====

molecular target: Short transient receptor potential channel 4 (Mus musculus, UniProt Q9QUQ5); assay: mouse TRPC4 channel activators, dose response, cell-based, HEK293 TRPC4/mu-opioid, Fluo-4 calcium (AID 434937); format: functional
Sequence (Q9QUQ5 whole entry): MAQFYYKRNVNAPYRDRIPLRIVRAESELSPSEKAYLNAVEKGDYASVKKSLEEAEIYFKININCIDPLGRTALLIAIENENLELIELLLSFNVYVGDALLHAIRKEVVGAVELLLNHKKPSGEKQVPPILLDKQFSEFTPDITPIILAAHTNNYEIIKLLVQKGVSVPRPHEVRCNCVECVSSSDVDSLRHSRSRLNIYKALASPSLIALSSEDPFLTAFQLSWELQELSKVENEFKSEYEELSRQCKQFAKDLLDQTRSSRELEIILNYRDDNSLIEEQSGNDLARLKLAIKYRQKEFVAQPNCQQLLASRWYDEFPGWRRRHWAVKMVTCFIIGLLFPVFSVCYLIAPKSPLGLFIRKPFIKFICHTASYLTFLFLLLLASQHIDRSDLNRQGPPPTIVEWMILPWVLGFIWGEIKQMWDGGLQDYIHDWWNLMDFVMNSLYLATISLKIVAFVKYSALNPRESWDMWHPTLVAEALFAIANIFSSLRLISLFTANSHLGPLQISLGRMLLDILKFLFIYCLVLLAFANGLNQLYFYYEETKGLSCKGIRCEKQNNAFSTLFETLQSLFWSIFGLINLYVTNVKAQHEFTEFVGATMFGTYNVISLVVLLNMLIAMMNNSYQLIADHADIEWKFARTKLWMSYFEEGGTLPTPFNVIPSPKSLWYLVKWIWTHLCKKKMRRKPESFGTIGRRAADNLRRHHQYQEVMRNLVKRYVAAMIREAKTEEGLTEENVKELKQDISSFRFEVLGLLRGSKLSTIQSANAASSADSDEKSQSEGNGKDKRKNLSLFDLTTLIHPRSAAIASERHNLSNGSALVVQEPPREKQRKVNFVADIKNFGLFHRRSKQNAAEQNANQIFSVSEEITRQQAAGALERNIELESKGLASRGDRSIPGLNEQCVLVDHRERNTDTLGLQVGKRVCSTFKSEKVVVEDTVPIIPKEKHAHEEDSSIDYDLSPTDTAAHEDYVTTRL
Activity calls are given as the source filed them.
outcomeMeasure: EC50

| compound | measValue |
| --- | --- |
| O=C(CCCc1ccccc1)NCCc1cnc[nH]1 | 5310 nM (active) |
| Cc1nc(N/C(N)=N/C(=O)NC2CCCCC2)nc2ccccc12 | 66.7 nM (active) |
| COc1ccc(Cl)cc1NC(=O)CNCC(c1ccccc1)N(C)C (stereo not given) | 1060 nM (active) |
| Cc1ccc(N2CCN(c3ccc(NCc4nc5ccccc5n4C)cc3)CC2)cc1 | 1060 nM (active) |
| CC(COc1ccccc1)N1CCC(CO)(CCc2ccccc2)CC1 (stereo not given) | 267 nM (active) |

====

Hi! I'm sharing some AC50 results obtained with Cytochrome P450 1A2 (Homo sapiens).
Sequence (P05177 whole entry): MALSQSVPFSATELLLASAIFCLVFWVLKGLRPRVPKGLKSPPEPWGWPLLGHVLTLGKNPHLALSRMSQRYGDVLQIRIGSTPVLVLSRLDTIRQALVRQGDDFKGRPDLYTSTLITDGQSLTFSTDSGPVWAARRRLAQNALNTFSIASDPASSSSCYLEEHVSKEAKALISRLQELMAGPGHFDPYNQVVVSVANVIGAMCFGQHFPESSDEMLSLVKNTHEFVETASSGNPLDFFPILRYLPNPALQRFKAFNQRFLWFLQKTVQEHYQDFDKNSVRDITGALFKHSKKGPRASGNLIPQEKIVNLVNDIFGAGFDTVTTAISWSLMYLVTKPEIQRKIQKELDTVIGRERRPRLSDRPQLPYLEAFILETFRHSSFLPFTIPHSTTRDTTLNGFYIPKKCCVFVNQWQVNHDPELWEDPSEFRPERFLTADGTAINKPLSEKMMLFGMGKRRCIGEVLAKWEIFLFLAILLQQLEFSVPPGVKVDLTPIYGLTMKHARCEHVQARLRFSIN

| compound | system | AC50 |
| --- | --- | --- |
| O=C(c1ccccc1)[C@H]1[C@H](c2ccccc2[N+](=O)[O-])N1C1CCCCC1 (some centres not stated) | Cytochrome P450 1A2 (Homo sapiens) | 0.631 µM (inconclusive) |
| Cc1cc(/C=C(/C#N)C(=O)Nc2ccccc2)c(C)n1-c1cccnc1 | Cytochrome P450 1A2 (Homo sapiens) | 1.78 µM (inconclusive) |
| Cc1cc(C)nc(Nc2n[nH]c(COc3ccc4ccccc4c3)n2)n1 | Cytochrome P450 1A2 (Homo sapiens) | 1.12 µM (inconclusive) |
| Cc1cccc(N2C(=O)NC(=O)/C(=C\c3cnn(-c4ccccc4)c3)C2=O)c1 | Cytochrome P450 1A2 (Homo sapiens) | 25.1 µM (inconclusive) |
| Cc1nc2ccccc2cc1C[N+]12CN3CN(CN(C3)C1)C2 | Cytochrome P450 1A2 (Homo sapiens) | 0.631 µM (inconclusive) |
| C/C=C(\C)C(=O)O[C@@H]1C(C)=C2[C@H]([C@@H]1OC(=O)CCCCCCC)[C@@](C)(OC(C)=O)C[C@@H](OC(=O)CCC)[C@@]1(O)[C@H]2OC(=O)[C@]1(C)O | Cytochrome P450 1A2 (Homo sapiens) | 39.8 µM (inconclusive) |
| Cn1cccc1C(=O)N1CCC2(CC1)CCN(c1ccc(-c3ccccc3)cc1)CC2 | Cytochrome P450 1A2 (Homo sapiens) | 20 µM (inconclusive) |
| C[S+]([O-])c1ccccc1-c1nc(-c2cc(C(F)(F)F)cc(C(F)(F)F)c2)no1 (configuration not stated) | Cytochrome P450 1A2 (Homo sapiens) | 2.24 µM (inconclusive) |
| CCCCN(c1ccccc1)c1ncnc2c1cnn2C | Cytochrome P450 1A2 (Homo sapiens) | 0.631 µM (inconclusive) |
| CN1CCCC[C@@H]1CCN1CCCCC1 | Cytochrome P450 1A2 (Homo sapiens) | 0.01 µM (inconclusive) |
| CN(C)Cc1ccccc1-c1cncnc1NCc1cccnc1 | Cytochrome P450 1A2 (Homo sapiens) | 12.6 µM (inconclusive) |
| NC(=Nc1ccccc1)NC(=O)c1nc(Cl)c(N)nc1N [PHENAMIL METHANESULFONATE] | Cytochrome P450 1A2 (Homo sapiens) | 12.6 µM (inconclusive) |
| CS(=O)(=O)N1CCC2(CCCN(c3ccccn3)C2)CC1 | Cytochrome P450 1A2 (Homo sapiens) | 25.1 µM (inconclusive) |
| Cn1cc(C(=O)N/N=C/C(Br)=C\c2ccccc2)ccc1=O | Cytochrome P450 1A2 (Homo sapiens) | 3.55 µM (inconclusive) |
| Cc1c(-c2c(C#N)c(N)nc3c2CCCCCC3)cnn1C | Cytochrome P450 1A2 (Homo sapiens) | 35.5 µM (inconclusive) |
| CC(=O)c1cccc(NC(=O)Oc2ccccc2)c1 | Cytochrome P450 1A2 (Homo sapiens) | 28.2 µM (inconclusive) |
| CC1=C[N+](=O)c2ccccc2[N+]1=O | Cytochrome P450 1A2 (Homo sapiens) | 6.31 µM (inconclusive) |
